The reader will find reported pIC50 values listed item by item below.
Target: recombinant human MMP-13 (Homo sapiens)
Construct: made in house; host or cells: baculovirus (pBlueBac4 / Bac-N-Blue; virus made in Sf9), expressed in High-Five insect cells; culture supernatant used
Assay: Assay of MMP-13 inhibiting activity (fluorogenic peptide substrate)
Assay type: biochemical
Details: Table 3; 37° C., 2 hours
The meaning of pIC50 here: minus log10 of the concentration in molar units.

Reference set (3 entries):
Molecule	System	pIC50
CC(C)C(=O)S[C@@H]1CC(=O)N(Cc2ccc(Oc3ccccc3)cc2)C1	recombinant human MMP-13 (Homo sapiens)	7.96
O=C(O)CCC(=O)S[C@@H]1CC(=O)N(Cc2ccc(Oc3ccccc3)cc2)C1	recombinant human MMP-13 (Homo sapiens)	8.10
CC(=O)NCS[C@@H]1CC(=O)N(Cc2ccc(Oc3ccccc3)cc2)C1	recombinant human MMP-13 (Homo sapiens)	5.70

Please give the documented pIC50 of CC(C)(C)OC(=O)CC(=O)S[C@@H]1CC(=O)N(Cc2ccc(Oc3ccccc3)cc2)C1
8.62

Specify reported pIC50 for the molecule shown: O=C(O)CSS[C@@H]1CC(=O)N(Cc2ccc(Oc3ccccc3)cc2)C1
6.40

Report pIC50 for CCC(=O)S[C@@H]1CC(=O)N(Cc2ccc(Oc3ccccc3)cc2)C1
8.49

Answer with the recorded pIC50 of O=C1CC(SCc2ccc(Br)cc2)CN1Cc1ccc(Oc2ccccc2)cc1 (stereo not drawn) only.
6.52

Specify reported pIC50 for the molecule shown: O=C1C[C@@H](S)CN1Cc1ccc(Oc2ccccc2)cc1
8.52
